Ref: patent US9944654B2

- tgt: E. coli DnaE (DNA polymerase III α-subunit from Escherichia coli) (Escherichia coli, UniProt P10443)
- Construct: EcDnaE (E. coli DnaE residues 1-1160); 6xHis (N); made in house; host or cells: E. coli BL21(DE3)
- Sequence (P10443 whole entry, the tested form may be a part): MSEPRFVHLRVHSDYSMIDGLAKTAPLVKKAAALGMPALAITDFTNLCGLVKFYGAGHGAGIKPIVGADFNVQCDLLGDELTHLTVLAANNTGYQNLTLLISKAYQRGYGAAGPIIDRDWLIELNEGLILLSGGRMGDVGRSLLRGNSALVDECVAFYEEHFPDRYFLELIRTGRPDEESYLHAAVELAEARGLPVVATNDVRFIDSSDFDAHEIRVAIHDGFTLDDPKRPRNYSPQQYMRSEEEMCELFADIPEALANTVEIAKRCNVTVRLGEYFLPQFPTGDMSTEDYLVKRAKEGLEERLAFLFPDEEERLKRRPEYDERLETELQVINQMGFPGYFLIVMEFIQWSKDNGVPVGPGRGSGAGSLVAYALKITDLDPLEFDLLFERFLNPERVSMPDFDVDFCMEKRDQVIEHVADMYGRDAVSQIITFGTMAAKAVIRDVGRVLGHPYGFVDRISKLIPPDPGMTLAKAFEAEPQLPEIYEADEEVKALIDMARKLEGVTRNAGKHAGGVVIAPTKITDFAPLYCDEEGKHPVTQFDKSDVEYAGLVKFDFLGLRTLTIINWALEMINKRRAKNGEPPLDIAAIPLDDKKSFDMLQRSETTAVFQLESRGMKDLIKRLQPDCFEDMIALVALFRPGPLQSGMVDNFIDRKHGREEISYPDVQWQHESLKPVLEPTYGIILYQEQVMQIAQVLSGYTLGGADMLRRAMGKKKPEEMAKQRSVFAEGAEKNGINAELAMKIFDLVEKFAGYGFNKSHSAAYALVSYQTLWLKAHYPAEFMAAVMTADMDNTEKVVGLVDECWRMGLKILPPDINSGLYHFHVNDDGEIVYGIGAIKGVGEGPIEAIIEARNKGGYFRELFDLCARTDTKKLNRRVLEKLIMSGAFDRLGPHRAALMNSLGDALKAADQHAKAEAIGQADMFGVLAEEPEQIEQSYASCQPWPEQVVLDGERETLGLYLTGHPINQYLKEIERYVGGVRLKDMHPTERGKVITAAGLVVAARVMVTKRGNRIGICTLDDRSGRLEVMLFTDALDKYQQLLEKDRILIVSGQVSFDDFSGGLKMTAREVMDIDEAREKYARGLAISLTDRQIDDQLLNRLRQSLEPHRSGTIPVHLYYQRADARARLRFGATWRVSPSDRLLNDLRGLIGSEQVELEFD
- assay-remarks: In vitro DnaE single enzyme assay (E. coli)
- Type: biochemical
- experimental-conditions: read-out: E. coli DnaE IC50 (converted)
readout-label: IC50

IC50 for CO[C@H]1C[C@H]2C=C[C@H]3[C@H]4O[C@]2(/C(C)=C/[C@@H](C)[C@@H]([C@@H](C)OC(=O)OCC(C)(N)CO)OC1=O)[C@@H]3[C@H](O)[C@@H](C)[C@H]4OC(=O)c1ccc[nH]1.O=C(O)C(F)(F)F (stereo partly drawn) ?
> 131 µM

Please answer likewise for CO[C@H]1C[C@H]2C[C@H](O)[C@H]3[C@H]4O[C@]2(/C(C)=C/[C@@H](C)[C@@H]([C@@H](C)O)OC1=O)[C@@H]3[C@H](O)[C@@H](C)[C@H]4OC(=O)c1ccc[nH]1
> 187 µM

Please answer likewise for CO[C@H]1CC2C=C[C@H]3[C@H]4O[C@]2(/C(C)=C/[C@@H](C)[C@@H](C(C)O)OC1=O)[C@@H]3[C@H](O)[C@@H](C)[C@H]4OC(=O)c1ccc[nH]1 (stereo partly drawn) [Nar, Nargenicin]
0.776 to 5.04 µM

====

Would you kindly list pIC50 for each of these compounds?
- tgt: E. coli DnaE (DNA polymerase III α-subunit from Escherichia coli) (Escherichia coli)
- Construct: EcDnaE (E. coli DnaE residues 1-1160); 6xHis (N); made in house; host or cells: E. coli BL21(DE3)
- assay-remarks: In vitro DnaE single enzyme assay (E. coli)
- Format: biochemical
- experimental-conditions: E. coli DnaE IC50
pIC50: −log10 of the molar value.

# returns recorded pIC50 (system: E. coli DnaE (DNA polymerase III α-subunit from Escherichia coli) (Escherichia coli)) for CO[C@H]1C[C@H]2C=C[C@H]3[C@H]4O[C@]2(/C(C)=C/[C@@H](C)[C@@H]([C@@H](C)O)OC1=O)[C@@H]3[C@H](O)C(C)[C@@H]4NCCN1CCCCC1.O=C(O)C(F)(F)F (some centres unmarked) [Example 156]
< 3.81

Please answer likewise for CO[C@H]1C[C@H]2C=C[C@@H]3[C@H]4[C@H](O)[C@@H](C)C(n5ccnc5)[C@@H]3O[C@]42/C(C)=C/[C@@H](C)[C@@H]([C@@H](C)O)OC1=O (some centres unmarked) [Example 149]
< 3.67

Please answer likewise for CO[C@H]1C[C@H]2CC[C@H]3[C@H]4O[C@]2(/C(C)=C/[C@@H](C)[C@@H]([C@@H](C)O)OC1=O)[C@@H]3[C@H](O)[C@@H](C)[C@H]4OC(=O)c1ccc[nH]1 [Example 37]
< 3.71

Please answer likewise for CO[C@H]1C[C@H]2C=C[C@H]3[C@H]4O[C@]2(/C(C)=C/[C@@H](C)[C@@H]([C@@H](C)OC(=O)NCCN(C)C)OC1=O)[C@@H]3[C@H](O)[C@@H](C)[C@H]4OC(=O)c1ccc[nH]1 [Example 5]
< 3.80

Please answer likewise for CO[C@H]1CC2C=C[C@H]3[C@H]4O[C@]2(/C(C)=C/[C@@H](C)[C@@H]([C@@H](C)O)OC1=O)[C@@H]3[C@H](OC(=O)NC1CC1)[C@@H](C)[C@H]4OC(=O)c1ccc[nH]1 (some centres unmarked) [Example 39]
< 3.78
